Target: C202S (C218S) mutant MKK7 kinase domain (Homo sapiens, UniProt O14733, C202S)
Sequence (O14733 1-419 C202S): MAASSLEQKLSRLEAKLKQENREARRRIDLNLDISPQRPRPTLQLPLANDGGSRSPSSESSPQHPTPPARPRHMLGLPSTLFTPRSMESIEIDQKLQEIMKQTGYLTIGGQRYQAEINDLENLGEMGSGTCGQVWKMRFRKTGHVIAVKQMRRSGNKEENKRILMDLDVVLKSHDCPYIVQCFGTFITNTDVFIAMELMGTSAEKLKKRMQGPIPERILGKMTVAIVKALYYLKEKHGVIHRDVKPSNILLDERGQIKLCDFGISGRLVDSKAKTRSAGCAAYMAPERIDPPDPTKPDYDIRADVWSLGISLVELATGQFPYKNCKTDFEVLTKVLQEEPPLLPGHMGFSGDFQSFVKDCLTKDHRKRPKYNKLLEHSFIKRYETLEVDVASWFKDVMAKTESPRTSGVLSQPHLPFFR
Settings: binder
Value Kind: ΔTm C202S (°C)
Hi! Could you send only the number? It should be in °C, unit omitted.

Look over these answered cases.
>  <Molecule>
CCN1CCN(Cc2ccc(NC(=O)c3ccc(C)c(C=Cc4cnc5[nH]ccc5c4OC)c3)cc2C(F)(F)F)CC1 [K03427, HG-6-64-01]

>  <ΔTm C202S, °C>
3.5

$$$$
>  <Molecule>
O=C1Nc2ccccc2/C1=C/c1c[nH]cn1 [K00007]

>  <ΔTm C202S, °C>
2.3

$$$$
>  <Molecule>
O=C1NC(=O)C(=Cc2ccc3c(c2)OC(F)(F)O3)S1 [K00828, PI3Kg inhib II (528108)]

>  <ΔTm C202S, °C>
0.6

$$$$

**Q:** Supply recorded ΔTm C202S for Brc1c(Br)c(Br)c2[nH]nnc2c1Br [K00040, TBB (218697)] here.
**A:** 3.3

**Q:** State its ΔTm C202S: Cc1cc(Nc2cc(C3CC3)[nH]n2)nc(Nc2ccc(CC#N)cc2)n1 [ASC69]
**A:** 4.9
